- system: Nuclear receptor ROR-gamma (Mus musculus)
- procedure_summary: qHTS for inhibitors of ROR gamma transcriptional activity; also: nearly all actives have a fitted effect of over 60% in size; also: potency is read from the fitted curve at half-maximal effect
- assay_conditions: Drosophila S2 Gal4-RORgamma UAS-luciferase reporter, 20 h; series mostly up to 53.6 µM
About 17,000 (5.5%) of roughly 310,000 compounds were called active. Another 11% or so got no clear call; they are omitted. Only a selection was taken, and actives are over-represented in it overall.
experimental_readout: Potency

Example compounds with recorded Potency:
compound	system	experimental_readout	value
Cc1ccc(N(Cc2cc(=O)[nH]c3ccccc23)C(=O)CCl)cc1	Nuclear receptor ROR-gamma (Mus musculus)	Potency	15.8 µM (active)
COc1ccc(N(CC(=O)NCc2ccc(F)cc2)C(=O)CCC(=O)Nc2nccs2)cc1	Nuclear receptor ROR-gamma (Mus musculus)	Potency	inactive
O=C(Nc1cnccn1)c1cccnc1	Nuclear receptor ROR-gamma (Mus musculus)	Potency	inactive
Cc1n[nH]c(=O)c2c1nnn2Cc1ccc(F)cc1	Nuclear receptor ROR-gamma (Mus musculus)	Potency	inactive
COc1ccc(NC(=S)NCCNC(C)=O)cc1	Nuclear receptor ROR-gamma (Mus musculus)	Potency	inactive
CN(C)c1nc(Nc2ccc(Cl)c(Cl)c2)nc(N(C)C)n1	Nuclear receptor ROR-gamma (Mus musculus)	Potency	inactive
O=C(CN1C(=O)CSC1=O)N1CCCC(Nc2ccc(F)cc2)C1 (stereo not given)	Nuclear receptor ROR-gamma (Mus musculus)	Potency	inactive
CC(C)c1ccc(N2CCN(C(=O)c3ccccc3NC(=O)/C=C(\C(=O)O)c3ccccc3)CC2)cc1	Nuclear receptor ROR-gamma (Mus musculus)	Potency	3.16 µM (active)
CCCCCC(=O)Nc1ccc(C(=O)N/N=C/c2ccc([N+](=O)[O-])cc2)cc1	Nuclear receptor ROR-gamma (Mus musculus)	Potency	inactive
COc1ccccc1-c1nnc(NC(=O)c2ccc3ncsc3c2)o1	Nuclear receptor ROR-gamma (Mus musculus)	Potency	0.501 µM (active)

INPUT: Value lookup for Potency; key = CC(=O)N1CCCc2cc(S(=O)(=O)N3CCCC(C(=O)N4CCN(c5cccc(Cl)c5)CC4)C3)ccc21 (stereo not given)
OUTPUT: 5.62 µM (active)

INPUT: Value lookup for Potency; key = "CC(=O)N(Cc1cc(=O)[nH]c2ccccc12)c1ccc(C)cc1C"
OUTPUT: inactive

INPUT: Value lookup for Potency; key = Cc1cc(O)c(C2(O)C(=O)Nc3ccccc32)cc1C (stereo not given)
OUTPUT: inactive

INPUT: Value lookup for Potency; key = "CCCc1nnc(NC(=O)c2cccs2)s1"
OUTPUT: inactive

INPUT: Value lookup for Potency; key = COc1ccccc1-c1nnc(SCC(=O)N2CC(C)CC(C)C2)o1 (stereo not given)
OUTPUT: inactive

INPUT: Value lookup for Potency; key = "O=C(NNS(=O)(=O)Cc1ccccc1)c1ccc([N+](=O)[O-])cc1"
OUTPUT: inactive

INPUT: Value lookup for Potency; key = "CCOC(=O)c1cccc(NC(=O)CCc2nnc3ccc(N4CCOCC4)nn23)c1"
OUTPUT: inactive

INPUT: Value lookup for Potency; key = COc1ccc(C2c3[nH]c4ccccc4c3CCN2CCCn2cccn2)cc1C (stereo not given)
OUTPUT: inactive

The origin of these recorded values is PubChem BioAssay AID2551.
